assay: self-splicing fitness, log relative to wild type (ln ratio); higher = more splicing; Tetrahymena group I intron in knt gene, E. coli kanamycin selection, DiMSum; sequences stand for … in CUCUCU…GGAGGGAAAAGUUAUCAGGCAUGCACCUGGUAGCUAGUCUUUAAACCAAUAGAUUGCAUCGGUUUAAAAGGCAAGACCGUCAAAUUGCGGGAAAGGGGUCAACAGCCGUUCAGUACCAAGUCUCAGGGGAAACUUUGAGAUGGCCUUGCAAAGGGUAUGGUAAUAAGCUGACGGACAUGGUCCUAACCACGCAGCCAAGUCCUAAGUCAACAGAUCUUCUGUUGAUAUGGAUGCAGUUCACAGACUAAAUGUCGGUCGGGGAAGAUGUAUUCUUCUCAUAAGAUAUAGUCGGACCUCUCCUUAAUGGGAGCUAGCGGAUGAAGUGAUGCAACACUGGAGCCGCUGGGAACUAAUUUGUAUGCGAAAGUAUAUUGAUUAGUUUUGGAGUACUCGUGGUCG; conditions: 37 °C;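 also: selection with 25 µg/mL kanamycin versus none on LB agar overnight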
Classification field: enter label 1 for self-splicing fitness (ln) values not below -1, label 0 for values below it.

### Prompt Hello, I need to know if `UCUAAGCAAUAUUACGUUGU` has measured self-splicing fitness (ln) not below -1. Thanks!
### Response label 0

### Prompt Hello, I need to know if `GUGCAGCAAUAUUACGAUCU` has measured self-splicing fitness (ln) not below -1. Thanks!
### Response label 1

### Prompt Hello, I need to know if `UGCUAGCAAUAUUACGAUCU` has measured self-splicing fitness (ln) not below -1. Thanks!
### Response label 1

### Prompt Hello, I need to know if `CCUGAGCAAUAUUACGGCAU` has measured self-splicing fitness (ln) not below -1. Thanks!
### Response label 0

---

Below, each entry is listed with its recorded self-splicing fitness (ln).
test: self-splicing fitness, log relative to wild type (ln ratio); higher = more splicing; Tetrahymena group I intron in knt gene, E. coli kanamycin selection, DiMSum; sequences stand for … in CUCUCU…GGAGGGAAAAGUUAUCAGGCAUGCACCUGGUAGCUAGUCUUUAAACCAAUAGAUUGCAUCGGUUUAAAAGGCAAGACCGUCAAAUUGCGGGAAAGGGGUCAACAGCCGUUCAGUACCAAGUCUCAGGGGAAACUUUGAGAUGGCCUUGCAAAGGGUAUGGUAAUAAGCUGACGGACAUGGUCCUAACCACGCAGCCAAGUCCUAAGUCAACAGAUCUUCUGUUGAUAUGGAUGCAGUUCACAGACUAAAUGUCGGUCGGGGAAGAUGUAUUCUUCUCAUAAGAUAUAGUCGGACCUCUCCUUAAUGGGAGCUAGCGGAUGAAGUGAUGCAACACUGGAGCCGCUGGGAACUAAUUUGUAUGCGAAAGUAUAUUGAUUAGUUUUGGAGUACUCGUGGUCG; conditions: 30 °C

Answered cases to consult:
INSERT INTO measurements (residue_sequence, measurement_type, measured) VALUES
  ('ACGCAGCAAUAUUACGACGG', 'self-splicing fitness (ln)', -0.871),
  ('GUGAAGCAAUAUUACGCUGG', 'self-splicing fitness (ln)', -1.42),
  ('GGUAAGCAAUAUUACGAUUC', 'self-splicing fitness (ln)', -0.184);

### Prompt Need self-splicing fitness (ln), item `AACAAGCAAUAUUACGAUCC`
### Response -1.13

### Prompt Need self-splicing fitness (ln), item `GCGAAGCAAUAUUACGAUUA`
### Response -1.52

### Prompt Need self-splicing fitness (ln), item `GACUAGCAAUAUUACGAGUG`
### Response -0.94

### Prompt Need self-splicing fitness (ln), item `CGGCAGCAAUAUUACGACUC`
### Response -0.739

### Prompt Need self-splicing fitness (ln), item `UUGUAGCAAUAUUACGUUUA`
### Response -1.36

### Prompt Need self-splicing fitness (ln), item `AACAAGCAAUAUUACGGUCG`
### Response -0.247

### Prompt Need self-splicing fitness (ln), item `AAGUAGCAAUAUUACGCCGC`
### Response -3.12
